experiment: in vitro; settings: cynomolgus monkey, 20% fecal homogenate (supernatant), anaerobic, pH 6.8
I'd be grateful if you could share measured half-life at 20 μM for these entries.
Numbers only, in h.

Examples from the recorded data:
[
  {
    "Chemical Structure": "CC(=O)NCCCC[C@H](NC(=O)[C@](C)(CC(C)C)NC(=O)[C@H](Cc1ccc2ccccc2c1)NC(=O)[C@H](Cc1ccc(OCCN)cc1)NC(=O)[C@H]1NC(=O)[C@H](CCC(N)=O)NC(=O)[C@H](Cc2c[nH]c3c(C)cccc23)NC(=O)[C@H]([C@@H](C)O)NC(=O)[C@H](CC(N)=O)NC(=O)[C@@H](NC(C)=O)C(C)(C)SSC1(C)C)C(=O)N[C@@H](CC(N)=O)C(=O)NCCC(N)=O",
    "Unit Symbol": "h",
    "Reading": 19
  },
  {
    "Chemical Structure": "CC(=O)NCCCC[C@H](NC(=O)C1(NC(=O)[C@H](Cc2ccc3ccccc3c2)NC(=O)[C@H](Cc2ccc(OCCN)cc2)NC(=O)[C@H]2NC(=O)[C@H](CCC(N)=O)NC(=O)[C@H](Cc3c[nH]c4c(C)cccc34)NC(=O)[C@H]([C@@H](C)O)NC(=O)[C@H](CC(N)=O)NC(=O)[C@@H](NC(C)=O)C(C)(C)SSC2(C)C)CCC1)C(=O)N[C@@H](CC(N)=O)C(=O)NCCC(N)=O",
    "Unit Symbol": "h",
    "Reading": 5
  }
]

Now for the compound whose half-life at 20 μM we want.
query: Give the reported value of half-life at 20 μM for this record: `CC(=O)NCCCC[C@H](NC(=O)[C@](C)(CCCCN)NC(=O)[C@H](Cc1ccc2ccccc2c1)NC(=O)[C@H](Cc1ccc(OCCN)cc1)NC(=O)[C@H]1NC(=O)[C@H](CCC(N)=O)NC(=O)[C@H](Cc2c[nH]c3cccc(C)c23)NC(=O)[C@H]([C@@H](C)O)NC(=O)[C@H](CC(N)=O)NC(=O)[C@@H](NC(C)=O)C(C)(C)SSC1(C)C)C(=O)N[C@@H](CC(N)=O)C(=O)NCCC(N)=O`
result: 15

---

assay: in vitro; settings: both, SD, rat, plasma (EDTA)
Readout Name: half-life at 20 μM (h)
One number for each entry, in h.

query: Please report half-life at 20 μM for the following compound: `CC(=O)NCCCC[C@H](NC(=O)C1(NC(=O)[C@H](Cc2ccc3ccccc3c2)NC(=O)[C@H](Cc2ccc(OCCN)cc2)NC(=O)[C@H]2NC(=O)[C@H](CCC(N)=O)NC(=O)[C@H](Cc3c[nH]c4c(C)cccc34)NC(=O)[C@H]([C@@H](C)O)NC(=O)[C@H](CC(N)=O)NC(=O)[C@@H](NC(C)=O)C(C)(C)SSC2(C)C)CCCCC1)C(=O)N[C@@H](CC(N)=O)C(=O)NCCC(N)=O`
result: 5

---

assay: in vitro; type: in vitro ADME; set-up: dose or concentration left out as unconfirmed; details: simulated intestinal fluid (SIF) with pancreatin, pH 6.8, 37° C., § matrix is 100 fold dilution of standard SIF concentration, read-out: SIF t½ (converted)
Numbered stars: 1 amine (or outer) side, 2 acyl side, 3 side chain; on linkers, the order of the positions; unused ones are H or OH. Bridge positions count the residues as written; N and C are the ends. Square brackets hold non-standard residues; d marks the D form. Peptide text beside a SMILES is read from it. X2 = CCCc1cccc2c(C[C@H](N[*:1])C(=O)[*:2])c[nH]c12; 2Nal = N[C@@H](Cc1ccc2ccccc2c1)C(=O)O; AEF = NCCOc1ccc(C[C@H](N)C(=O)O)cc1; Pen = CC(C)(S)[C@H](N)C(=O)O; αMeK = C[C@](N)(CCCCN)C(=O)O
Readout Name: half-life (h)
One number for each entry, in h.

[
  {
    "Compound": "CCCc1cccc2c(C[C@@H]3NC(=O)[C@H]([C@@H](C)O)NC(=O)[C@H](CC(N)=O)NC(=O)[C@@H](NC(C)=O)C(C)(C)SSC(C)(C)[C@@H](C(=O)N[C@@H](Cc4ccc(OCCN)cc4)C(=O)N[C@@H](Cc4ccc5ccccc5c4)C(=O)N[C@@](C)(CCCCN)C(=O)N[C@@H](CCCCNC(C)=O)C(=O)N[C@@H](CC(N)=O)C(=O)N[C@H](CC(C)C)C(N)=O)NC(=O)[C@H](CCCCNC(C)=O)NC3=O)c[nH]c12 [compound 285] (Ac-[Pen]NT[X2]K(Ac)[Pen][AEF][2Nal][αMeK]K(Ac)N[dL]-NH2; disulfide 1-6)",
    "Reading": 9
  }
]

query: Indicate its recorded half-life; the compound in question is CC(=O)NCCCC[C@H](NC(=O)[C@](C)(CCCCN)NC(=O)[C@H](Cc1ccc2ccccc2c1)NC(=O)[C@H](Cc1ccc(OCCN)cc1)NC(=O)[C@H]1NC(=O)[C@H](CCCCNC(=O)CN)NC(=O)[C@H](Cc2c[nH]c3c(C)cccc23)NC(=O)[C@H]([C@@H](C)O)NC(=O)[C@H](CC(N)=O)NC(=O)[C@@H](NC(C)=O)C(C)(C)SSC1(C)C)C(=O)N[C@@H](CC(N)=O)C(=O)N[C@H](CC(C)C)C(N)=O [compound 320]
result: 12

---

Hi there, I'd appreciate the recorded half-life at 20 μM for every entry that follows.
assay: in vitro; conditions: cynomolgus monkey, 20% fecal homogenate (supernatant), anaerobic, pH 6.8
Numbered stars: 1 amine (or outer) side, 2 acyl side, 3 side chain; on linkers, the order of the positions; unused ones are H or OH. Bridge positions count the residues as written; N and C are the ends. Square brackets hold non-standard residues; d marks the D form. Peptide text beside a SMILES is read from it. X1 = CCc1cccc2c(C[C@H](N[*:1])C(=O)[*:2])c[nH]c12; 2Nal = N[C@@H](Cc1ccc2ccccc2c1)C(=O)O; AEF = NCCOc1ccc(C[C@H](N)C(=O)O)cc1; Pen = CC(C)(S)[C@H](N)C(=O)O; αMeK = C[C@](N)(CCCCN)C(=O)O

[
  {
    "Compound": "CCc1cccc2c(C[C@@H]3NC(=O)[C@H]([C@@H](C)O)NC(=O)[C@H](CC(N)=O)NC(=O)[C@@H](NC(C)=O)C(C)(C)SSC(C)(C)[C@@H](C(=O)N[C@@H](Cc4ccc(OCCN)cc4)C(=O)N[C@@H](Cc4ccc5ccccc5c4)C(=O)N[C@@](C)(CCCCN)C(=O)N[C@@H](CCCCNC(C)=O)C(=O)N[C@@H](CC(N)=O)C(=O)N[C@H](CC(C)C)C(N)=O)NC(=O)[C@H](CCCCNC(C)=O)NC3=O)c[nH]c12 [compound 284] (Ac-[Pen]NT[X1]K(Ac)[Pen][AEF][2Nal][αMeK]K(Ac)N[dL]-NH2; disulfide 1-6)",
    "half-life at 20 μM": "> 24 h"
  },
  {
    "Compound": "CC(=O)NCCCC[C@@H]1NC(=O)[C@H](Cc2c[nH]c3c(C)cccc23)NC(=O)[C@H]([C@@H](C)O)NC(=O)[C@H](CC(N)=O)NC(=O)[C@@H](NC(C)=O)C(C)(C)SSC(C)(C)[C@@H](C(=O)N[C@@H](Cc2ccc(OCCN)cc2)C(=O)N[C@@H](Cc2ccc3ccccc3c2)C(=O)N[C@@](C)(CCCCN)C(=O)N[C@@H](CCCCNC(C)=O)C(=O)N[C@@H](CC(N)=O)C(=O)N[C@@H](CCCNC(N)=O)C(N)=O)NC1=O",
    "half-life at 20 μM": "5 h"
  },
  {
    "Compound": "CC(=O)NCCCC[C@H](NC(=O)[C@](C)(CCCCN)NC(=O)[C@H](Cc1ccc2ccccc2c1)NC(=O)[C@H](Cc1ccc(OCCN)cc1)NC(=O)[C@H]1NC(=O)[C@H](CCC(N)=O)NC(=O)[C@H](Cc2c[nH]c3c(C)cccc23)NC(=O)[C@H]([C@@H](C)O)NC(=O)[C@H](CCC(N)=O)NC(=O)[C@@H](NC(C)=O)C(C)(C)SSC1(C)C)C(=O)N[C@@H](CC(N)=O)C(=O)NCCC(N)=O",
    "half-life at 20 μM": "6 h"
  },
  {
    "Compound": "CC(=O)NCCCC[C@H](NC(=O)[C@](C)(CC(C)C)NC(=O)[C@H](Cc1ccc2ccccc2c1)NC(=O)[C@H](Cc1ccc(OCCN)cc1)NC(=O)[C@H]1NC(=O)[C@H](CCC(N)=O)NC(=O)[C@H](Cc2c[nH]c3c(C)cccc23)NC(=O)[C@H]([C@@H](C)O)NC(=O)[C@H](CC(N)=O)NC(=O)[C@@H](NC(C)=O)C(C)(C)SSC1(C)C)C(=O)N[C@H](C)C(=O)NCCC(N)=O",
    "half-life at 20 μM": "> 24 h"
  },
  {
    "Compound": "CC(=O)N[C@@H]1C(=O)N[C@@H](CC(N)=O)C(=O)N[C@@H]([C@@H](C)O)C(=O)N[C@@H](Cc2c[nH]c3c(C)cccc23)C(=O)N[C@@H](CCC(N)=O)C(=O)N[C@H](C(=O)N[C@@H](Cc2ccc(OCCN)cc2)C(=O)N[C@@H](Cc2ccc3ccccc3c2)C(=O)N[C@@](C)(CCCCN)C(=O)N[C@@H](CCCNC(N)=O)C(=O)NCCC(=O)NCCC(N)=O)C(C)(C)SSC1(C)C",
    "half-life at 20 μM": "> 24 h"
  },
  {
    "Compound": "CC(=O)NCCCC[C@H](NC(=O)[C@](C)(CCCCN)NC(=O)[C@H](Cc1ccc2ccccc2c1)NC(=O)[C@H](Cc1ccc(OCCN)cc1)NC(=O)[C@H]1NC(=O)[C@H](CCC(N)=O)NC(=O)[C@H](Cc2c(C(C)(C)C)[nH]c3c(C(C)(C)C)cc(C(C)(C)C)cc23)NC(=O)[C@H]([C@@H](C)O)NC(=O)[C@H](CC(N)=O)NC(=O)[C@@H](NC(C)=O)C(C)(C)SSC1(C)C)C(=O)N[C@@H](CC(N)=O)C(=O)NCCC(N)=O",
    "half-life at 20 μM": "> 24 h"
  },
  {
    "Compound": "CC(=O)NCCCC[C@H](NC(=O)[C@](C)(CCCCN)NC(=O)[C@H](Cc1ccc2ccccc2c1)NC(=O)[C@H](Cc1ccc(OCCN)cc1)NC(=O)[C@H]1NC(=O)[C@H](CCC(N)=O)NC(=O)[C@H](Cc2c[nH]c3c(C)cccc23)NC(=O)[C@H]([C@@H](C)O)NC(=O)[C@H](CC(N)=O)NC(=O)[C@@H](NC(C)=O)C(C)(C)SSC1(C)C)C(=O)N[C@@H](CC(N)=O)C(=O)NCCC(N)=O",
    "half-life at 20 μM": "12 h"
  },
  {
    "Compound": "CC(=O)N[C@H]1CCSC[C@@H](C(=O)N[C@@H](Cc2ccc(OCCN)cc2)C(=O)N[C@@H](Cc2ccc3ccccc3c2)C(=O)NC2(C(=O)N[C@@H](CCC(=O)O)C(=O)N[C@@H](CC(N)=O)C(=O)NCCC(N)=O)CCOCC2)NC(=O)[C@H](CCC(N)=O)NC(=O)[C@H](Cc2c[nH]c3c(C)cccc23)NC(=O)[C@H]([C@@H](C)O)NC(=O)[C@H](CCC(N)=O)NC1=O",
    "half-life at 20 μM": "5 h"
  },
  {
    "Compound": "CC(=O)NCCCC[C@@H]1NC(=O)[C@H](Cc2c[nH]c3c(C)cccc23)NC(=O)[C@H]([C@@H](C)O)NC(=O)[C@H](CC(N)=O)NC(=O)[C@@H](NC(C)=O)C(C)(C)SSC(C)(C)[C@@H](C(=O)N[C@@H](Cc2ccc(OCCN)cc2)C(=O)N[C@@H](Cc2ccc3ccccc3c2)C(=O)N[C@@](C)(CCCCN)C(=O)N[C@@H](CCC(=O)O)C(=O)NCCC(=O)NCCC(N)=O)NC1=O",
    "half-life at 20 μM": "12 h"
  }
]

query: Could you please provide reported half-life at 20 μM for `CC(=O)N[C@@H]1C(=O)N[C@@H](CC(N)=O)C(=O)N[C@@H]([C@@H](C)O)C(=O)N[C@@H](Cc2c[nH]c3c(C)cccc23)C(=O)N[C@@H](CCC(N)=O)C(=O)N[C@H](C(=O)N[C@@H](Cc2ccc(OCCN)cc2)C(=O)N[C@@H](Cc2ccc3ccccc3c2)C(=O)N[C@@](C)(CC(C)C)C(=O)NCC(=O)N2CCC[C@H]2C(=O)NCCC(N)=O)C(C)(C)SSC1(C)C` ? Thanks!
result: 24 h
